Taken from paper PMC3717276.

Measured IC50, listed per entry for reference.
molecular target: Human Bcl-2 protein (isoform 2 construct), N-terminal 6xHis tagged recombinant protein (human); assay: SPR; competitive solution binding: protein (20 nM) pre-incubated with tested BH3 peptide for at least 30 min, injected over immobilised biotin-Bim BH3 peptide; response at 30 s of dissociation

>  <binder>
PAELEVECATQLRRFGDKLNFRQKLL [Noxa BH3 peptide (residues 18-43)]

>  <result_modifier>
>

>  <IC50 / nM>
30000

$$$$
>  <binder>
NLWAAQRYGRELRRMSDEFVDSFKKG [Bad BH3 peptide (residues 103-128)]

>  <result_modifier>
=

>  <IC50 / nM>
4.37

$$$$
